apparent Kd reference
- System: MS2 coat protein
- assay-summary: apparent Kd, MS2 coat protein; higher = weaker binding; RNA-MaP array; FMN 200 µM where present
- assay-setup: designed as: OFF switch for flavin mononucleotide; no ligand
Output spec: scalar in nM, unitless text.

Endpoint output: apparent Kd of UUAAAACGUGUGAGGAUAUCGAGAGUAGCUGAUCUCGAGAAGGCACAUGAGGAUCACCCAUGUGGCCUGCACCG . Value? 14.6

Returns the measured apparent Kd for the input sequence. Input: AAAAAACAUGAGGAUCACCCAUGUGAGGAUAUGAUGAAAGAUUGAAAAAGGUUGAAAGUCAGAAGGUAUGUGAA 56.9

I'd like to know its apparent Kd. The sequence in question is GGCAUGUGAGGAUAUCUGAUGUCUAACUUCGGUUAGACAUCAGAGAAGGCACAUGAGGAUCACCCAUGUCUGCC 68.4

Given the sequence AAUGUUUGAUUCCACUUAUACAUGAGGAUCACCCAUGUUAUCGAGGAUAUGCAUUAGAGCGUUUAGCAGAAGGCGAUGUAAUUG , what is its reported apparent Kd? 7.41

----------
- System: MS2 coat protein
- assay-summary: apparent Kd, MS2 coat protein; higher = weaker binding; RNA-MaP array; FMN 200 µM where present
- assay-setup: designed as: OFF switch for flavin mononucleotide; no ligand
Response key: true (1) means apparent Kd >= 30 nM; false (0) means apparent Kd < 30 nM.

query_sequence=ACAGACCAUCGAGGAUAUGAACAUGAGGAUCACCCAUGUAAGUGGAAGAUGGUGAUUCCUGGGCUUCAGAAGGCGAACGUCAGG category_label="false (0)"
query_sequence=GAUACGUCAGGAUAUCUGAUGUCUAACUUCGGUUAGACAUCAGAGAAGGGACAUGAGGAUCACCCAUGUAUCAG category_label="true (1)"
query_sequence=GUAAUUAAUGUAGGAUAUGCAAGGCGAACCUAAGCAGAAGGACAUGAGGAUCACCCAUGUAUUGCGGUCUGCGUUCAGAUCGCU category_label="false (0)"
query_sequence=CUAUGAAGAAUAGGAUAUUCGAUCAAGAGGAUAGAAGAAGGGUUACAUGAGGAUCACCCAUGUAUGCACAUGAGGAUCCCUUAG category_label="true (1)"
query_sequence=CUAAAUCAUGUAGGAUAUGCGUGGCGAAGCUAUGCAGAAGGACAUGAGGAUCACCCAUGUCUAUCCGUCUGCGUACAGACGGAA category_label="false (0)"

Could you verify whether the entry CUGCCUUAUGUAGGAUAUGCAUAGCGUUGCUAUGCAGAAGGACAUGAGGAUCACCCAUGUAUGUAAUCAAUACAUAUCUGGCAG shows apparent Kd of no less than 30 nM? false (0)

Could you tell me if the measured apparent Kd of UGUCGGAGCAGAGGAUAUUACAUGAGGAUCACCCAUGUAUGAACCAAUAGCUGGAAACAGCAAUGUAAGAAGGCUGCUCCGACC reaches 30 nM or more? false (0)

----------
apparent Kd values for the sequences below.
- Tested on: MS2 coat protein
- assay-summary: apparent Kd, MS2 coat protein; higher = weaker binding; RNA-MaP array; FMN 200 µM where present
- assay-setup: ligand present: flavin mononucleotide; designed as: OFF switch for flavin mononucleotide
Reply numerically in nM, unit not repeated.

These recorded examples may help you get a feel for the data.
query_sequence=CGAGUUUUUGAGAAGGCAUAAUAUAUAAUACCACAUGUUUACAUGAGGAUCACCCAUGUUUCCUAUGAGGAUAUCAGAAUAUCG experimental_endpoint="apparent Kd" readout_value=14.4
query_sequence=UGUGCGUUGAUCUUCGAUCGGUGUACAUGAGGAUCACCCAUGUAGGAUAUUCAAAGACGCAGAUAGGAGAAGGACAUCGGUUUU experimental_endpoint="apparent Kd" readout_value=19.8
query_sequence=AAUUUACAUGAGGAUCACCCAUGUGAGGAUAUAUAUAUAUGCUUGUUAUUGCGUGUGUGUAGAAGGCGCGUGAU experimental_endpoint="apparent Kd" readout_value=21

Now take the following sequence into account.
Recorded apparent Kd for GUUUACGUAGAAGGAUAUACAUUUGACAUCCUGAUGCACGCAAUACUCACAUGAGGAUCACCCAUGUAGAAGGUCUGCGAAAGA , please? 24.8
